# experimental.system: BCRP (ABCG2) (Homo sapiens (Human))
# Sequence (Q9UNQ0 whole entry): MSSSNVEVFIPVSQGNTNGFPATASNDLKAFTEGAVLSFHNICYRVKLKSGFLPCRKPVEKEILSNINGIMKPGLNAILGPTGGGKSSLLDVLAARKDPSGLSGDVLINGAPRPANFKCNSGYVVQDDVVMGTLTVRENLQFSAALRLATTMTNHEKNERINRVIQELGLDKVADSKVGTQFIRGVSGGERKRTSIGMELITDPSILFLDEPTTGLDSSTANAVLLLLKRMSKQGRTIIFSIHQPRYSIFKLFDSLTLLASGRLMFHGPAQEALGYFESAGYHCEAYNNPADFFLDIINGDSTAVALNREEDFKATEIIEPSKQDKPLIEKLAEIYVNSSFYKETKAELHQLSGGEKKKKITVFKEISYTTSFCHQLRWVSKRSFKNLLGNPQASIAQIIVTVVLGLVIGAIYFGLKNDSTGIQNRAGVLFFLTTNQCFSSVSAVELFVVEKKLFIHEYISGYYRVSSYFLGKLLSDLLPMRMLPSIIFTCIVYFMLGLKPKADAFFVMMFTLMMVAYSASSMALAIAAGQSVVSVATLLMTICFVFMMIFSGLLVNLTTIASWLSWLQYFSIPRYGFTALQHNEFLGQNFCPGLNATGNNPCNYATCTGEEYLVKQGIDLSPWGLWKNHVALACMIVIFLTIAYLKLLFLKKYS
# measurement.description: MDCK-BCRP efflux assay (in vitro brain penetration)
# Type: in vitro ADME
# condition.context: dog, B to A, read-out: RRCK BCRP Papp BA
# reported Papp B→A; entries follow
Answer format: numeric, ×10⁻⁶ cm/s implied, no suffix.

Study these solved cases before continuing.
C[C@@H](CO)n1cc(C(=O)c2cncc(NC(=O)Cc3ccc(C(F)(F)F)cc3)c2)c2cncnc21 [Example 9]	43
CC(C)(CO)n1cc(C(=O)c2cncc(NC(=O)Cc3ccc(Cl)cn3)c2)c2cnc(N)nc21 [Example 46]	31
CC(C)(C)n1cc(C(=O)c2cncc(NC(=O)Cn3cc(C4CC4)nn3)c2)c2cncnc21 [Example 4]	39

Query block: Look at this compound and give its reported Papp B→A. Cc1cc(C(F)(F)F)nn1CC(=O)Nc1cncc(C(=O)c2cn(C(C)(C)CO)c3ncncc23)c1 [Example 26]
Result block: 32

* * *

# experimental.system: TRKA (Homo sapiens (Human), UniProt P04629)
# Sequence (P04629 441-796): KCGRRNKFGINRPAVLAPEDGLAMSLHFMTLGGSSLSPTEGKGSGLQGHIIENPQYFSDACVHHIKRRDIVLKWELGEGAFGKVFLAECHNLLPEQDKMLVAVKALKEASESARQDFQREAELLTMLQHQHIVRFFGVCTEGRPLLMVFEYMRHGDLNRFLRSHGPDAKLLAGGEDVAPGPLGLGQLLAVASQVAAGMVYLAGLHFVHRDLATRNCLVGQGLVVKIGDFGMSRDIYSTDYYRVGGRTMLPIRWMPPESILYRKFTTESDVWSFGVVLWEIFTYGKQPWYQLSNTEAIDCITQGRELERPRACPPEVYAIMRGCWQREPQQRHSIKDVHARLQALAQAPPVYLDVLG
# measurement.description: Isolated TRK enzyme assay (HTRF KinEASE-TK), TRKA
# Format: biochemical
# condition.context: read-out: Trka enzyme (IC50)
outcome.measure: pIC50
For clarity, pIC50 is expressed as the negative log10 of concentration in mol/L.

CC(C)n1cc(C(=O)c2cncc(NC(=O)c3nccn3C)c2)c2cncnc21	5.29
C[C@@H](CO)n1cc(C(=O)c2cncc(NC(=O)Cc3cccc(C(F)(F)F)c3)c2)c2cncnc21	8.37
CC(C)n1cc(C(=O)c2cncc(NC(=O)Cn3cc(C4CC4)nn3)c2)c2cnc(N)nc21	7.45
CC(C)n1cc(C(=O)c2cncc(NC(=O)Cn3ncc4ccccc43)c2)c2cncnc21	7.38
Cc1cn2cc(CC(=O)Nc3cncc(C(=O)c4cn(C(C)C)c5ncncc45)c3)nc2s1	6.12

Query block: Look at this compound and give its reported pIC50. N#Cc1ccc(CC(=O)Nc2cncc(C(=O)c3cn(C45CC(C4)C5)c4nc(N)ncc34)c2)cc1
Result block: 8.01

Query block: Look at this compound and give its reported pIC50. CC(C)(CO)n1cc(C(=O)c2cncc(NC(=O)Cc3ccc(NS(C)(=O)=O)cc3)c2)c2cnc(N)nc21
Result block: 8.80

* * *

# experimental.system: UniProt:P04629
# measurement.description: Isolated TRK enzyme assay (HTRF KinEASE-TK), TRKA
# Type: biochemical
# condition.context: read-out: Trka enzyme (IC50)
pIC50: −log10 of the molar value.
# pIC50 >= 7 gives true, anything below gives false

CC(C)n1cc(C(=O)c2c[nH]c(=O)c(NC(=O)COc3ccccc3OC(F)(F)F)c2)c2cncnc21 [Example 585]	true

Query block: # check: pIC50 of CC(C)n1cc(C(=O)c2cncc(NC(=O)Cc3ccc(C#N)c(F)c3)c2)c2cncnc21 [Example 76] is greater than or equal to 7
Result block: false

Query block: # check: pIC50 of COc1ccc(CC(=O)Nc2cncc(C(=O)c3cn(C)c4ncncc34)c2)cc1 [Example 181] is greater than or equal to 7
Result block: false

Query block: # check: pIC50 of CC(C)n1cc(C(=O)c2cncc(NC(=O)Cn3cc4cccc(F)c4n3)c2)c2cncnc21 [Example 101] is greater than or equal to 7
Result block: false

Query block: # check: pIC50 of CC(C)(CO)n1cc(C(=O)c2cncc(NC(=O)Cc3ccc(C#N)cc3)c2)c2cnc(N)nc21 [Example 259] is greater than or equal to 7
Result block: true

Query block: # check: pIC50 of CC(C)n1cc(C(=O)c2cncc(NC(=O)c3cccc(C(=O)C(F)(F)F)c3)c2)c2cncnc21 [Example 292] is greater than or equal to 7
Result block: true

Query block: # check: pIC50 of CC(C)n1cc(C(=O)c2cncc(NC(=O)Cn3cc4ccccc4n3)c2)c2cncnc21 [Example 93] is greater than or equal to 7
Result block: true

Query block: # check: pIC50 of CC(C)n1cc(C(=O)c2cncc(NC(=O)Cn3ccc4ccccc43)c2)c2cncnc21 [Example 111] is greater than or equal to 7
Result block: true

Query block: # check: pIC50 of CC(C)n1cc(C(=O)c2cncc(NC(=O)CN3Cc4ccc(F)cc4C3=O)c2)c2cncnc21 [Example 78] is greater than or equal to 7
Result block: false

Query block: # check: pIC50 of CC(C)n1cc(C(=O)c2cncc(NC(=O)Cc3ccc4[nH]c(C(F)(F)F)nc4c3)c2)c2cncnc21 [Example 84] is greater than or equal to 7
Result block: false

Query block: # check: pIC50 of CS(=O)(=O)Cn1cc(C(=O)c2cncc(NC(=O)Cc3ccc(Cl)cc3)c2)c2cncnc21 [Example 314] is greater than or equal to 7
Result block: false

Query block: # check: pIC50 of CC(C)c1csc(C(=O)Nc2cncc(C(=O)c3cn(C(C)C)c4ncncc34)c2)n1 [Example 438] is greater than or equal to 7
Result block: true

* * *

# experimental.system: TRKA (Homo sapiens (Human), UniProt P04629)
# measurement.description: Isolated TRK enzyme assay (HTRF KinEASE-TK), TRKA
# Format: biochemical
# condition.context: read-out: Trka enzyme (IC50)
# reported log10 of IC50; entries follow
Reminder: these figures are log10 of reported IC50, in nM before transformation.

Study these solved cases before continuing.
CC(C)n1cc(C(=O)c2cncc(NC(=O)c3cc4cnccc4o3)c2)c2cncnc21	2.80
CC(C)n1cc(C(=O)c2cncc(NC(=O)c3cocn3)c2)c2cncnc21	2.93
Cc1cc2nnc(C(=O)Nc3cncc(C(=O)c4cn(C(C)C)c5ncncc45)c3)c(C)n2n1	3.37

In the following, a different compound is considered.
Query block: Please state recorded log10 of IC50 (tested on TRKA (Homo sapiens (Human), UniProt P04629)) of CC(C)n1cc(C(=O)c2cncc(NC(=O)c3n[nH]c4c3CCC4)c2)c2cncnc21
Result block: 1.18

* * *

# reported pIC50; entries follow
# experimental.system: UniProt:P04629
# measurement.description: Isolated TRK enzyme assay (HTRF KinEASE-TK), TRKA
# Assay type: biochemical
# condition.context: read-out: Trka enzyme (IC50)
For clarity, pIC50 is expressed as the negative log10 of concentration in mol/L.

Query block: Look at this compound and give its reported pIC50. CC(CO)n1cc(C(=O)c2cncc(NC(=O)Cc3ccc(C#N)cc3)c2)c2cnc(N)nc21 (single isomer, unassigned) [Example 212]
Result block: 7.23

Query block: Look at this compound and give its reported pIC50. Cc1cccc2ncn(CC(=O)Nc3cncc(C(=O)c4cn(C(C)C)c5ncncc45)c3)c12
Result block: 6.08

Query block: Look at this compound and give its reported pIC50. O=C(Cc1cccc(OC(F)(F)F)c1)Nc1cncc(C(=O)c2cn(C(CO)CO)c3ncncc23)c1
Result block: 6.36

Query block: Look at this compound and give its reported pIC50. CC(C)n1cc(C(=O)c2cncc(NC(=O)Cc3cnc4ncnn4c3)c2)c2cncnc21
Result block: 5.01

Query block: Look at this compound and give its reported pIC50. Cn1cc(C(=O)c2cncc(NC(=O)COc3ccc(F)cc3)c2)c2cncnc21
Result block: 5.81

Query block: Look at this compound and give its reported pIC50. COc1ccc2c(ccn2CC(=O)Nc2cncc(C(=O)c3cn(C(C)C)c4ncncc34)c2)n1
Result block: 5.41

* * *

# experimental.system: UniProt P04629
# measurement.description: Isolated TRK enzyme assay (HTRF KinEASE-TK), TRKA
# Format: biochemical
# condition.context: read-out: Trka enzyme (IC50)
outcome.measure: IC50 (µM)
Answer format: numeric, µM implied, no suffix.

Study these solved cases before continuing.
C[C@@H](CO)n1cc(C(=O)c2cncc(NC(=O)Cc3ccc(F)c(F)c3)c2)c2cncnc21	0.0512
CC(C)c1cn(CC(=O)Nc2cncc(C(=O)c3cn(C(C)C)c4nc(N)ncc34)c2)nn1	0.0237
CC(C)n1cc(C(=O)c2cncc(NC(=O)Cn3cc(-c4cccc(O)c4)nn3)c2)c2cncnc21	2.63

Query block: Please state recorded IC50 (tested on UniProt P04629) of CC(C)n1cc(C(=O)c2cncc(NC(=O)Cc3c[nH]c4ccc(O)cc34)c2)c2cncnc21
Result block: 0.23

* * *

# experimental.system: UniProt:Q16288
# Sequence (Q16288 32-839): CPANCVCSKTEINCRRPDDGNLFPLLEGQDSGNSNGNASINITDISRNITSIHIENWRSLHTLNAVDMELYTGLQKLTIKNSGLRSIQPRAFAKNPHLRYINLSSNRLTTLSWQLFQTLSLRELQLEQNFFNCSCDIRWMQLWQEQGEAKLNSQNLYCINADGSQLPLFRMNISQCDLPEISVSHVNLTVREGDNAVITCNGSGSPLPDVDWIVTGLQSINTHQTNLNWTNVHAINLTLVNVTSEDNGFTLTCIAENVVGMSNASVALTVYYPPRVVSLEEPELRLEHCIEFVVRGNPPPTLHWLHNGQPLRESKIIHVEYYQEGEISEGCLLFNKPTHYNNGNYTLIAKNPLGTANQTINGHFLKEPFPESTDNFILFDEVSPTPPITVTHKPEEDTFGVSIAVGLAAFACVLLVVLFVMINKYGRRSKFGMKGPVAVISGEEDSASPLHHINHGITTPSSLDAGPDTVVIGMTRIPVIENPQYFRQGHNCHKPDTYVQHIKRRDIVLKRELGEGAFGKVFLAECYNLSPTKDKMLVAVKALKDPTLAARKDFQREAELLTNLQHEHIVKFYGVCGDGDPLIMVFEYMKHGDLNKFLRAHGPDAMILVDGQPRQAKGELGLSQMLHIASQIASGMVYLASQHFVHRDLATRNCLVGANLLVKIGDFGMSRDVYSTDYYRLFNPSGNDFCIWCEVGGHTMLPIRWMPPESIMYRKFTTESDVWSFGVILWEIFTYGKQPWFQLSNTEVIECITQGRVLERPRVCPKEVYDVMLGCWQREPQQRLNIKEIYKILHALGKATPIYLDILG
pIC50: −log10 of the molar value.
# pIC50 >= 8 gives TRUE, anything below gives FALSE

CC(C)(CO)n1cc(C(=O)c2cncc(NC(=O)Cc3ccc(C(F)(F)F)cc3)c2)c2cncnc21	TRUE

Query block: # check: pIC50 of Cc1cc(C(F)(F)F)nn1CC(=O)Nc1cncc(C(=O)c2cn([C@@H](C)CO)c3ncncc23)c1 is greater than or equal to 8
Result block: FALSE

Query block: # check: pIC50 of CC(C)(C)n1cc(C(=O)c2cncc(NC(=O)Cn3cc(C(F)(F)F)cn3)c2)c2cncnc21 is greater than or equal to 8
Result block: TRUE

Query block: # check: pIC50 of CC(C)(CO)n1cc(C(=O)c2cncc(NC(=O)Cc3ccc(C(F)(F)F)cc3)c2)c2cnc(N)nc21 is greater than or equal to 8
Result block: TRUE
